- TEST SYSTEM: Mcl-1 protein (UniProtKB Q07820) (Homo sapiens (Human), UniProt Q07820)
- Sequence (Q07820 whole entry): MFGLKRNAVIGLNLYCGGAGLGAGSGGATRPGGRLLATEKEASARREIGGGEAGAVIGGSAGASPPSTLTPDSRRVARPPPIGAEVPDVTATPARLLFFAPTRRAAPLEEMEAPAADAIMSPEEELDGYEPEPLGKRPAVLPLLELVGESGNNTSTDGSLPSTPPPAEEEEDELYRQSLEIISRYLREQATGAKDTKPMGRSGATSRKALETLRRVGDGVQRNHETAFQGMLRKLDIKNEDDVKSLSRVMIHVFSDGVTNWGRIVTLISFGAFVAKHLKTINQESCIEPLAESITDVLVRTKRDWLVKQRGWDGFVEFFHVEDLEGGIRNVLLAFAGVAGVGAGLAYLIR
- EXPERIMENT SUMMARY: Inhibition of Mcl-1 by the fluorescence polarisation assay (Example A, Method A)
- RECORDED CONDITIONS: fluorescence polarization assay
pKi: −log10 of the molar value.
MEASURE: pKi

Solved cases (3 shown):
q: Which pKi reading was recorded for the compound O=C(O)C1(Nc2cccc(Br)c2)CCC2(CC1)C(=O)N1CCCc3cc(Br)cc2c31 (single isomer, unassigned) [Example 14] ?
a: 5.28

q: Which pKi reading was recorded for the compound Cc1ccc(C2Cc3ccccc3C23CCC(Nc2cccc(Br)c2)(C(=O)O)CC3)o1 (stereo not shown) [Example 239] ?
a: 6.52

q: Which pKi reading was recorded for the compound C=CCOc1ccc2c(c1)[C@]1(CC2)CC[C@](Nc2cccc(Br)c2)(C(=O)O)CC1 [Example 68] ?
a: 6.52

(P) O=C(O)[C@]1(Nc2cccc(Cl)c2)CC[C@@]2(CC1)c1ccccc1CC2[C@H]1C[C@@H]1COc1ccnc2ccsc12 (single isomer, unassigned) [Example 103]
(Q) Cc1cc2c(OCCC[C@@H]3Cc4ccccc4[C@]34CC[C@@](Nc3cccc(Cl)c3)(C(=O)O)CC4)cccc2[nH]1 [Example 481]
(R) Cn1ccc2cc(C3Cc4ccccc4[C@]34CC[C@@](Nc3cccc(Cl)c3)(C(=O)O)CC4)ccc21 (stereo partly shown) [Example 274]
(S) O=C(O)C1(Nc2cccc(Br)c2)CCC2(CC1)c1ccccc1CC2c1cccc(Cl)c1 (stereo not shown) [Example 221]
q: Rank entries according to their pKi, from the largest number down. Record the ranking as a list of labels in the requested order.
a: Q, P, S, R
(Q: 7.14, P: 6.67, S: 6.00, R: 5.33)

###

- TEST SYSTEM: Cy5-labelled Mcl1 (amino acids 171-321) C286S protein (UniProtKB Q07820) (Homo sapiens (Human), UniProt Q07820, C286S)
- Sequence (Q07820 171-321 C286S): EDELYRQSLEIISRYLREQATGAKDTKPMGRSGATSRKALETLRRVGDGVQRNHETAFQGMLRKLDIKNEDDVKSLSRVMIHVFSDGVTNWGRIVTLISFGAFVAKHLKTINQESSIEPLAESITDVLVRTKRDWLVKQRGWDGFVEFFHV
- EXPERIMENT SUMMARY: Inhibition of Mcl-1 by the fluorescence quenching assay (Example A, Method B)
- Assay type: binding
pKi: −log10 of the molar value.
MEASURE: pKi

q: Which pKi reading was recorded for the molecule `C[C@@H](COc1ccncc1C(F)(F)F)C[C@H]1Cc2ccccc2[C@]12CC[C@@](Nc1cccc(Cl)c1)(C(=O)O)CC2` ?
a: 8.11

(I) CC(C)Oc1cc2c(cc1Cl)C[C@H](C[C@@H](C)COc1ccnc3c1[C@H](C)CCC3)[C@]21CC[C@](Nc2cccc(Cl)c2)(C(=O)O)CC1
(II) COCCOC(=O)[C@]1(Nc2cccc(Cl)c2)CC[C@@]2(CC1)c1cc3c(cc1C[C@@H]2C[C@@H](C)COc1ccnc2c1[C@H](C)CCC2)OCO3
q: Of I and II , whose reported pKi is the larger number? Answer format: the label of the selected item.
a: I

(P) C[C@@H](COc1ccnc2ccsc12)C[C@@H]1Cc2ccc(F)cc2[C@]12CC[C@@](Nc1cccc(Cl)c1)(C(=O)O)CC2
(Q) C[C@@H](COc1ccnc2c1[C@H](C)CCC2)C[C@H]1Cc2ccccc2[C@]12CC[C@@](Oc1cccc(Cl)c1)(C(=O)O)CC2
q: # return whichever of P and Q has the smaller pKi Answer format: the label of the selected item.
a: P

###

- TEST SYSTEM: Cy5-labelled Mcl1 (amino acids 171-321) C286S protein (UniProtKB Q07820) (Homo sapiens (Human), UniProt Q07820, C286S)
- EXPERIMENT SUMMARY: Inhibition of Mcl-1 by the fluorescence quenching assay (Example A, Method B)
- Format: binding
MEASURE: Ki (nM)

q: Which Ki reading was recorded for the molecule `CC[C@@H](COc1ccncc1)C[C@H]1Cc2ccccc2[C@]12CC[C@@](Nc1cccc(Cl)c1)(C(=O)O)CC2` ?
a: 22.4

(A) C[C@@H](COc1ccnc2c(Cl)cn(C)c12)C[C@H]1Cc2ccccc2[C@]12CC[C@@](Nc1cccc(Cl)c1)(C(=O)O)CC2
(B) CCC1COc2cc3c(cc2OC1)[C@]1(CC[C@@](Nc2cccc(Cl)c2)(C(=O)O)CC1)[C@@H](C[C@@H](C)COc1ccnc2c1[C@H](C)CCC2)C3 (single isomer, unassigned) [Example 989]
q: Of A and B , whose reported Ki is the larger number? Answer format: the label of the selected item.
a: A

###

- TEST SYSTEM: Cy5-labelled Mcl1 (amino acids 171-321) C286S protein (UniProtKB Q07820) (Homo sapiens (Human), UniProt Q07820, C286S)
- EXPERIMENT SUMMARY: Inhibition of Mcl-1 by the fluorescence quenching assay (Example A, Method B)
- Format: binding
MEASURE: Ki (nM)

q: Which Ki reading was recorded for the compound O=C(O)[C@]1(Nc2cccc(Cl)c2)CC[C@@]2(CC1)c1ccccc1CC2CC(COc1ccnc2c1CCC2)COc1ccnc2c1CCC2 (single isomer, unassigned) [Example 497] ?
a: 1.34

(A) C[C@@H](COc1ccnc2c1[C@H](C)CCC2)C[C@H]1Cc2cc3c(cc2[C@]12CC[C@@](Nc1cccc(Cl)c1)(C(=O)O)CC2)OCCCO3 [Example 837]
(B) C[C@@H](COc1ccnc2c1[C@H](C)CCC2)C[C@H]1Cc2cc3c(cc2[C@]12CC[C@@](Nc1cccc(Cl)c1F)(C(=O)O)CC2)OCO3 [Example 846]
(C) C[C@@H](COc1ccnc2c1CCCC2C(F)F)C[C@H]1Cc2ccccc2[C@]12CC[C@@](Nc1cccc(Cl)c1)(C(=O)O)CC2 (single isomer, unassigned) [Example 682]
(D) C[C@@H](COc1ccnc2c1[C@H](C)CC[C@H]2O)C[C@H]1Cc2cc3c(cc2[C@]12CC[C@@](Nc1cccc(Cl)c1)(C(=O)O)CC2)OCO3 [Example 959]
q: Ascending by Ki, please. Record the ranking as a list of labels in the requested order.
a: A, D, B, C

(A) C[C@@H](COc1ccnc2c1[C@H](C)CCC2)CC1Cc2c(F)cccc2[C@]12CC[C@@](Nc1cccc(Cl)c1)(C(=O)O)CC2 (single isomer, unassigned) [Example 742]
(B) CCCC1COc2cc3c(cc2OC1)[C@]1(CC[C@@](Nc2cccc(Cl)c2)(C(=O)O)CC1)[C@@H](C[C@@H](C)COc1ccnc2c1[C@H](C)CCC2)C3 (single isomer, unassigned) [Example 990]
q: Of A and B , whose reported Ki is the larger number? Answer format: the label of the selected item.
a: A
(A: 1.23 nM, B: 0.0575 nM)

(I) CC(C)(C)OC(=O)N1CCC(CC2=Cc3ccccc3[C@]23CC[C@@](Nc2cccc(Cl)c2)(C(=O)O)CC3)CC1 [Example 558]
(II) CC(O)c1ccc2c(c1)[C@]1(CC[C@@](Nc3cccc(Cl)c3)(C(=O)O)CC1)[C@@H](C[C@@H](C)COc1ccnc3c1[C@H](C)CC[C@H]3F)C2 (single isomer, unassigned) [Example 864]
(III) CC[C@H]1CCc2nccc(OC[C@H](C)C[C@H]3Cc4ccccc4[C@]34CC[C@@](Nc3cccc(Cl)c3)(C(=O)O)CC4)c21 [Example 613]
(IV) C[C@@H](COc1ccnc2c1[C@H](C)CCC2)C[C@H]1Cc2cc3c(cc2[C@]12CC[C@@](Nc1cccc(Cl)c1)(C(=O)O)CC2)O[C@@H](C)[C@H](C)O3 [Example 975]
q: Rank entries according to their Ki, from the largest number down. Record the ranking as a list of labels in the requested order.
a: I, III, II, IV
(I: 549 nM, III: 18.9 nM, II: 0.374 nM, IV: 0.0244 nM)

(a) C[C@@H](COc1ccnc2c1C(F)(F)CCC2)C[C@H]1Cc2ccccc2[C@]12CC[C@@](Nc1cccc(Cl)c1)(C(=O)O)CC2 [Example 693]
(b) Cc1cc(OC[C@H](C)C[C@H]2Cc3ccccc3[C@]23CC[C@@](Nc2cccc(Cl)c2)(C(=O)O)CC3)c2c(n1)CCCC2C (single isomer, unassigned) [Example 662]
q: Of a and b , whose reported Ki is the larger number? Answer format: the label of the selected item.
a: b
(b: 68.7 nM, a: 3.7 nM)

(I) Cc1cccc2c1CC(C[C@@H](C)COc1ccnc3c1[C@H](C)CCC3)[C@]21CC[C@](Nc2cccc(Cl)c2)(C(=O)O)CC1 (single isomer, unassigned) [Example 755]
(II) O=C(O)[C@]1(Nc2cccc(Cl)c2)CC[C@]2(CC1)C(CC(COc1ccnc3ccsc13)Cc1ccccc1)=Cc1ccccc12 (single isomer, unassigned) [Example 559]
(III) C[C@@H]1CCCc2nccc(OCC(CC3=Cc4ccccc4[C@]34CC[C@@](Nc3cccc(Cl)c3)(C(=O)O)CC4)C(F)F)c21 (single isomer, unassigned) [Example 516]
q: Rank entries according to their Ki, from the largest number down. Record the ranking as a list of labels in the requested order.
a: II, III, I

(1) C[C@@H](COc1c[nH]c2ccccc12)C[C@H]1Cc2ccccc2[C@]12CC[C@@](Nc1cccc(Cl)c1)(C(=O)O)CC2 [Example 628]
(2) COc1cc2c(cc1Cl)C[C@H](C[C@@H](C)COc1ccnc3c1[C@H](C)CCC3)[C@]21CC[C@](Nc2cccc(Cl)c2)(C(=O)O)CC1 [Example 815]
q: # return whichever of 1 and 2 has the smaller Ki Answer format: the label of the selected item.
a: 2
(2: 0.251 nM, 1: 69.9 nM)

(A) CC[C@@H](COc1ccnc2ccsc12)C[C@H]1Cc2ccccc2[C@]12CC[C@@](Nc1cccc(Cl)c1)(C(=O)O)CC2 [Example 538]
(B) CC(O)c1ccc2c(c1)[C@]1(CC[C@@](Nc3cccc(Cl)c3)(C(=O)O)CC1)[C@@H](C[C@@H](C)COc1ccnc3ccsc13)C2 (stereo partly shown) [Example 722]
q: Of A and B , whose reported Ki is the larger number? Answer format: the label of the selected item.
a: A
(A: 9.15 nM, B: 0.349 nM)

meta.source: patent US20240150293A1
